Measured PC-3 (prostate, adenocarcinoma) cell viability (% of control) of individual entries
Tested on: PC-3 (prostate, adenocarcinoma) cells
assay-explanation: Cell viability assay, CellTiter-Glo (Example 21)
Type: cell-based, human
measurement-setup: 100 nM, 72 h treatment

1. [N-]=[N+]=Nc1cccc(CN2CCC3=C(C2)C(=O)N(Cc2ccc(Cl)cc2)C2=NCCN23)c1 [I/133]: 32.6 ± 3.3 % of control
2. O=C1C2=C(CCN(Cc3ccccc3)C2)N2CCN=C2N1Cc1ccc(C(F)(F)F)cc1 [I/1, reference compound]: 60.4 ± 5.2 % of control

Q: Any idea what its PC-3 (prostate, adenocarcinoma) cell viability (% of control) is? The molecule is [N-]=[N+]=Nc1cccc(CN2CCC3=C(C2)C(=O)N(Cc2ccc(C(F)(F)F)cc2)C2=NCCN23)c1 [I/111]
A: 32.0 ± 3.2 % of control

Q: Request: O=C1C2=C(CCN(Cc3cc(F)cc(F)c3)C2)N2CCN=C2N1Cc1ccc(Cl)cc1 [I/124]
A: 32.8 ± 3.2 % of control

====

Test system: PC-3 (prostate, adenocarcinoma) cells
assay-explanation: Cell viability assay, CellTiter-Glo (Example 21)
Assay type: cell-based, human
measurement-setup: 11.1 nM, 72 h treatment
Experimental: Effect of the selected compounds on cancer cell viability was measured via CellTiter-Glo® luminescent cell viability assay (Promega, Madison, WI, USA) according to the manufacturer's instructions. Cells were plated onto a flat-bottomed, white 96 well plate (BRANDplates®, cat. no.: 781965). […] After the treatment, the luminescence signal was recorded using a microplate reader (BioTek Synergy 2 Multi-Mode Reader, BioTek, Winooski, VT, USA). […]
Measured PC-3 (prostate, adenocarcinoma) cell viability (% of control) of individual entries

Q: Any idea what its PC-3 (prostate, adenocarcinoma) cell viability (% of control) is? The compound is `[N-]=[N+]=Nc1cccc(CN2CCC3=C(C2)C(=O)N(Cc2ccc(Cl)cc2)C2=NCCN23)c1`
A: 83.5 ± 6.4 % of control

Q: Request: `[N-]=[N+]=Nc1cccc(CN2CCC3=C(C2)C(=O)N(Cc2ccc(C(F)(F)F)cc2)C2=NCCN23)c1`
A: 75.5 ± 5.9 % of control

Q: Request: `O=C1C2=C(CCN(Cc3cc(F)cc(F)c3)C2)N2CCN=C2N1Cc1ccc(C(F)(F)F)cc1`
A: 36.6 ± 1.8 % of control

Q: Request: `[N-]=[N+]=Nc1ccc(CN2C(=O)C3=C(CCN(Cc4cc(F)cc(F)c4)C3)N3CCN=C23)cc1`
A: 82.3 ± 7.0 % of control

Q: Request: O=C1C2=C(CCN(Cc3ccccc3)C2)N2CCN=C2N1Cc1ccc(C(F)(F)F)cc1 [I/1, reference compound]
A: 102.4 ± 3.7 % of control

Q: Request: O=C1C2=C(CCN(Cc3cccc(F)c3)C2)N2CCN=C2N1Cc1ccc(C(F)(F)F)cc1 [I/3, reference compound]
A: 110.2 ± 4.1 % of control

Q: Request: `O=C1C2=C(CCN(Cc3cc(F)cc(F)c3)C2)N2CCN=C2N1Cc1ccc(F)cc1`
A: 38.9 ± 2.1 % of control

Q: Request: O=C1C2=C(CCN(Cc3cccc(F)c3)C2)N2CCN=C2N1Cc1ccc(F)cc1 [I/6, reference compound]
A: 108.7 ± 7.7 % of control

Q: Request: `O=C1C2=C(CCN(Cc3cc(F)cc(F)c3)C2)N2CCN=C2N1Cc1ccc(Cl)cc1`
A: 33.9 ± 3.3 % of control
